Consider the following EC50 values measured on Peroxisome proliferator-activated receptor gamma (Homo sapiens).
Sequence (P37231 whole entry): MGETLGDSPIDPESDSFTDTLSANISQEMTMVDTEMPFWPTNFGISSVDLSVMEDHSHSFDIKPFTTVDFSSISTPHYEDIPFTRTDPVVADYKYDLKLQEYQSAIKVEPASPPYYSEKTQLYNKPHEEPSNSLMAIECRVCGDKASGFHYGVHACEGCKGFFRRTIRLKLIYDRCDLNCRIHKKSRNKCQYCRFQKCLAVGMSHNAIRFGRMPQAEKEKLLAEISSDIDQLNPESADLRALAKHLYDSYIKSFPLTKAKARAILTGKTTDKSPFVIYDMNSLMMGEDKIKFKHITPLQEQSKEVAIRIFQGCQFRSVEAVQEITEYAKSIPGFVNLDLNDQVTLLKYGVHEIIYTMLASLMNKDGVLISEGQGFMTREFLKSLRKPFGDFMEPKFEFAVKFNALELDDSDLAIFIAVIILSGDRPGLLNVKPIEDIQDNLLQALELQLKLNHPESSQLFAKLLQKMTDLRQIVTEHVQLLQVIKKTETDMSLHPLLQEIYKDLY
Value expressed in µM; do not type the unit.

Example entries begin here.
>>> readoutvalue("CCCCCCC[C@H]1C(=O)C=C(I)[C@@H]1OCCCCCC(=O)O (relative stereo)")
0.03
>>> readoutvalue("CCCCCCC#CC1=CC(=O)[C@H](CCCCCCC)[C@@H]1OCCCCCC(=O)O (relative stereo)")
4

[Q] Find the recorded EC50 belonging to CCCCCCC#CC1=CC(=O)[C@H](CCCCCCC)[C@H]1OCCCCCC(=O)O (relative stereo) and report it.
[A] 8

[Q] Find the recorded EC50 belonging to CCCCCCC[C@H]1C(=O)C=C[C@H]1OCCCCCC(=O)O and report it.
[A] 2

[Q] Find the recorded EC50 belonging to CCCCCCC[C@H]1C(=O)C=C(I)[C@H]1OCCCCCC(=O)O (relative stereo) and report it.
[A] 0.06

[Q] Find the recorded EC50 belonging to CCCCCCC[C@H]1C(=O)C=C[C@@H]1OCCCCCC(=O)O and report it.
[A] 4

====

# Lookup of reported pEC50 keyed by entry
systemName: Peroxisome proliferator-activated receptor alpha (Homo sapiens)
Sequence (Q07869 whole entry, the tested form may be a part): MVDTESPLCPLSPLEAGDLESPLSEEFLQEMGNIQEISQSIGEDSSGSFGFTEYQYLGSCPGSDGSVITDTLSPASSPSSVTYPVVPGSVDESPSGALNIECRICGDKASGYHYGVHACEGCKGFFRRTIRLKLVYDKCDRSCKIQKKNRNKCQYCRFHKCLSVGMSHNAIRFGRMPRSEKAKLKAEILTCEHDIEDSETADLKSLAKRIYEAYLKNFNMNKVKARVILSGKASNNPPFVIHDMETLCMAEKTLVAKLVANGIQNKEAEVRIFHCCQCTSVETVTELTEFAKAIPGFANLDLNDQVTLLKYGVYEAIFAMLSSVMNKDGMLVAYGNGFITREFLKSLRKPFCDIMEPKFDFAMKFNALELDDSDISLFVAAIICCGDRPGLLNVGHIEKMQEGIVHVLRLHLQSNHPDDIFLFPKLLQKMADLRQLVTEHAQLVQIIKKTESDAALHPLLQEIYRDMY
runDescription: Agonist activity at PPARalpha ligand binding domain expressed in human HeLa cells co-transfected with Gal4-DBD assessed as transcriptional activation by Gal4 response element-driven luciferase reporter gene assay
# reply with the number alone; pEC50 is -log10 of concentration in mol/L

>>> readoutvalue("CCCCCCC#CC1=CC(=O)[C@H](CCCCCCC)[C@@H]1OCCCCCC(=O)O (relative stereo)")
6.30
>>> readoutvalue("CCCCCCC[C@H]1C(=O)C=C[C@@H]1OCCCCCC(=O)O")
6.00
>>> readoutvalue("CCCCCCC#CC1=CC(=O)[C@H](CCCCCCC)[C@H]1OCCCCCC(=O)O (relative stereo)")
6.30

Next compound, please.
[Q] Find the recorded pEC50 belonging to CCCCCCC[C@H]1C(=O)C=C(I)[C@@H]1OCCCCCC(=O)O (relative stereo) and report it.
[A] 6.00

====

Consider the following EC50 values measured on Peroxisome proliferator-activated receptor delta (Homo sapiens).
Sequence (Q03181 whole entry): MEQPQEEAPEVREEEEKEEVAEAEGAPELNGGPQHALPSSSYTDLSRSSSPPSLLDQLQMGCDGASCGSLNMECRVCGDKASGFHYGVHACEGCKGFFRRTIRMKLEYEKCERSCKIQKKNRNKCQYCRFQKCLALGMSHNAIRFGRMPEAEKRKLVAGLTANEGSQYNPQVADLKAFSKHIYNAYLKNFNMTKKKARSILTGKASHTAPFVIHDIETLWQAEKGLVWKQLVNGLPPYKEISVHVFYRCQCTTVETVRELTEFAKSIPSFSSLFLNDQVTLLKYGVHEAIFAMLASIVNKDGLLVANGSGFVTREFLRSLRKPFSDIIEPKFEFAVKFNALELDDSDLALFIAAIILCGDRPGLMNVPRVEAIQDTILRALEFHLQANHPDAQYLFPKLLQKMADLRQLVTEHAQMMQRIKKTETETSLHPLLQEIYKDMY
Value expressed in nM; do not type the unit.

Example entries begin here.
>>> readoutvalue("CCCCCCC#CC1=CC(=O)[C@H](CCCCCCC)[C@H]1OCCCCCC(=O)O (relative stereo)")
2000
>>> readoutvalue("CCCCCCC[C@H]1C(=O)C=C[C@H]1OCCCCCC(=O)O")
2000

[Q] Find the recorded EC50 belonging to CCCCCCC[C@H]1C(=O)C=C(I)[C@@H]1OCCCCCC(=O)O (relative stereo) and report it.
[A] 500

[Q] Find the recorded EC50 belonging to CCCCCCCN(CCc1ccc(SC(C)(C)C(=O)O)cc1)C(=O)Nc1ccc(F)cc1F [GSK-9578] and report it.
[A] 1000

====

Consider the following EC50 values measured on Peroxisome proliferator-activated receptor delta (Homo sapiens).

Example entries begin here.
>>> readoutvalue("CCCCCCC[C@H]1C(=O)C=C(I)[C@H]1OCCCCCC(=O)O (relative stereo)")
"> 10 µM"
>>> readoutvalue("CCCCCCC[C@H]1C(=O)C=C[C@@H]1OCCCCCC(=O)O")
"> 10 µM"

[Q] What is its EC50 for Peroxisome proliferator-activated receptor delta (Homo sapiens)? Entry: CCCCCCC#CC1=CC(=O)[C@H](CCCCCCC)[C@@H]1OCCCCCC(=O)O (relative stereo)
[A] > 10 µM
